- Tested on: Nannizzia gypsea
- protocol description: Antifungal activity against Microsporum gypseum by serial dilution method
- Format: functional
measured endpoint: MIC80 (µg/mL)
Dear colleague, please return just the value in µg/mL, with no unit written.

GET /values?readout=MIC80&system=Nannizzia gypsea&item= `OC(Cn1cncn1)(Cn1cncn1)c1ccc(F)cc1F`
16

Find MIC80 (Nannizzia gypsea) for the entry `O=C(Nc1ccccc1Cl)c1cc2c(OCCCNCc3cccnc3)cccc2[nH]1`
2

Could you share what MIC80 was measured for `CCOC(=O)c1cc2c(OCCCNCc3cccnc3)cccc2[nH]1` , tested on Nannizzia gypsea?
32

Provide the documented MIC80 with Nannizzia gypsea as the system for `O=C(Nc1cccc(F)c1)c1cc2c(OCCCNCc3cccnc3)cccc2[nH]1`
32

Query MIC80 on Nannizzia gypsea for `Clc1cccc(Cl)c1SCc1cc2c(OCCCNCc3cccnc3)cccc2[nH]1`
4

Report MIC80 for `Fc1ccc(OCc2cc3c(OCCCNCc4cccnc4)cccc3[nH]2)c(F)c1` tested on Nannizzia gypsea.
8

Please tell me: MIC80 of `CCOC(=O)c1oc2cccc(OCCCNCc3cccnc3)c2c1C` , system Nannizzia gypsea?
4

API: value(readout= MIC80, system= Nannizzia gypsea, query= `O=C(Nc1ccc(Cl)cc1)c1cc2c(OCCCNCc3cccnc3)cccc2[nH]1` )
32
